# Assay Text: In vitro serum stability assay (HPLC) of In-111 labeled peptide
# Type: in vitro ADME, human
# Run Conditions: human serum, 37EC, t = 4 h; read-out: HPLC Evaluation of Serum Stability at 37EC, Serum, t = 4 h
Where a SMILES comes first, the peptide text is derived from it. [ ]: non-standard residue; d: D form. The star is where a group is joined. DTPA = O=C(O)CN(CCN(CC(=O)O)CC(=O)O)CCN(CC(=O)O)CC(=O)*; Phe(4-guanidino) = N=C(N)Nc1ccc(C[C@H](N)C(=O)O)cc1
Parameter: remaining at 4 h (%)
Lab book: enter the figure in %, no units written.

Recorded results for 3 compounds are shown here.
Compound | Result Number
CC[C@H](C)[C@H](NC(=O)[C@H](Cc1ccc(O)cc1)NC(=O)[C@@H]1CCCN1C(=O)[C@H](CCCNC(=N)N)NC(=O)[C@H](CCCNC(=N)N)NC(=O)CN(CCN(CCN(CC(=O)O)CC(=O)O)CC(=O)O)CC(=O)O)C(=O)N[C@@H](CC(C)C)C(=O)O [In-111-DTPA-R-R-P-Y-I-L, metal not drawn, reference compound] | 1.6
CC[C@H](C)[C@H](NC(=O)[C@H](Cc1ccc(O)cc1)NC(=O)[C@@H]1CCCN1C(=O)C(Cc1ccc(NC(=N)N)cc1)NC(=O)[C@H](CCCNC(=N)N)NC(=O)[C@@H]1CCCN1C(=O)[C@@H](CCCCN)NC(=O)CN(CCN(CCN(CC(=O)O)CC(=O)O)CC(=O)O)CC(=O)O)C(=O)N[C@@H](CC(C)C)C(=O)O (single isomer, unassigned) [In-111-DTPA-DK-P-R-F(Gu)-P-Y-I-L, metal not drawn] | 16.3
CC[C@H](C)[C@H](NC(=O)[C@H](Cc1ccc(O)cc1)NC(=O)[C@@H]1CCCN1C(=O)[C@H](CCCN=C(N)N)NC(=O)[C@H](Cc1ccc(NC(=N)N)cc1)NC(=O)[C@@H]1CCCN1C(=O)[C@@H](CCCCN)NC(=O)CN(CCN(CCN(CC(=O)O)CC(=O)O)CC(=O)O)CC(=O)O)C(=O)N[C@@H](CC(C)C)C(=O)O [In-111-DTPA-DK-P-F(Gu)-R-P-Y-I-L, metal not drawn] | 14.1

remaining at 4 h measured on CC[C@H](C)[C@H](NC(=O)[C@H](Cc1ccc(O)cc1)NC(=O)[C@@H]1CCCN1C(=O)[C@H](CCCNC(=N)N)NC(=O)C(CCc1ccnc(N)n1)NC(=O)[C@@H]1CCCN1C(=O)[C@@H](CCCCN)NC(=O)CN(CCN(CCN(CC(=O)O)CC(=O)O)CC(=O)O)CC(=O)O)C(=O)N[C@@H](CC(C)C)C(=O)O (single isomer, unassigned) [In-111-DTPA-DK-P-Aba(Apy)-R-P-Y-J-L, metal not drawn] = 4.3

remaining at 4 h measured on CC[C@H](C)[C@H](NC(=O)[C@H](Cc1ccc(O)cc1)NC(=O)[C@@H]1CCCN1C(=O)[C@H](Cc1ccc(NC(=N)N)cc1)NC(=O)[C@H](Cc1ccc(NC(=N)N)cc1)NC(=O)[C@@H]1CCCN1C(=O)[C@@H](CCCCN)NC(=O)CN(CCN(CCN(CC(=O)O)CC(=O)O)CC(=O)O)CC(=O)O)C(=O)N[C@@H](CC(C)C)C(=O)O [In-111-DTPA-DK-P-F(Gu)-F(Gu)-P-Y-I-L, metal not drawn] ({DTPA}-[dK]P[Phe(4-guanidino)][Phe(4-guanidino)]PYIL-OH; C-terminus assumed) = 25.2

remaining at 4 h measured on CC[C@H](C)[C@H](NC(=O)[C@H](Cc1ccc(O)cc1)NC(=O)[C@@H]1CCCN1C(=O)[C@H](CCCNC(=N)N)NC(=O)C(NC(=O)[C@@H]1CCCN1C(=O)[C@@H](CCCCN)NC(=O)CN(CCN(CCN(CC(=O)O)CC(=O)O)CC(=O)O)CC(=O)O)C1CCN(C(=N)N)CC1)C(=O)N[C@@H](CC(C)C)C(=O)O (single isomer, unassigned) [In-111-DTPA-DK-P-G(PipAm)-R-P-Y-I-L, metal not drawn] = 19.5

---

# Assay Text: In vitro serum stability assay (HPLC) of In-111 labeled peptide
# Assay type: in vitro ADME, human
# Run Conditions: human serum, t = 0
Where a SMILES comes first, the peptide text is derived from it. [ ]: non-standard residue; d: D form. The star is where a group is joined. DTPA = O=C(O)CN(CCN(CC(=O)O)CC(=O)O)CCN(CC(=O)O)CC(=O)*; Phe(4-guanidino) = N=C(N)Nc1ccc(C[C@H](N)C(=O)O)cc1
Parameter: HPLC Evaluation of Serum Stability at 37EC, Serum, t = 0 (%)
Lab book: enter the figure in %, no units written.

Recorded results for 5 compounds are shown here.
Compound | Result Number
CC[C@H](C)[C@H](NC(=O)[C@H](Cc1ccc(O)cc1)NC(=O)[C@@H]1CCCN1C(=O)C(CCc1ccnc(N)n1)NC(=O)[C@H](CCCNC(=N)N)NC(=O)[C@@H]1CCCN1C(=O)[C@@H](CCCCN)NC(=O)CN(CCN(CCN(CC(=O)O)CC(=O)O)CC(=O)O)CC(=O)O)C(=O)N[C@@H](CC(C)C)C(=O)O (single isomer, unassigned) [In-111-DTPA-DK-P-R-Aba(Apy)-P-Y-I-L, metal not drawn] | 98.1
CC[C@H](C)[C@H](NC(=O)[C@H](Cc1ccc(O)cc1)NC(=O)[C@@H]1CCCN1C(=O)[C@H](Cc1ccc(NC(=N)N)cc1)NC(=O)[C@H](Cc1ccc(NC(=N)N)cc1)NC(=O)[C@@H]1CCCN1C(=O)[C@@H](CCCCN)NC(=O)CN(CCN(CCN(CC(=O)O)CC(=O)O)CC(=O)O)CC(=O)O)C(=O)N[C@@H](CC(C)C)C(=O)O [In-111-DTPA-DK-P-F(Gu)-F(Gu)-P-Y-I-L, metal not drawn] ({DTPA}-[dK]P[Phe(4-guanidino)][Phe(4-guanidino)]PYIL-OH; C-terminus assumed) | 99.0
CC[C@H](C)[C@H](NC(=O)[C@H](Cc1ccc(O)cc1)NC(=O)[C@@H]1CCCN1C(=O)[C@H](CCCNC(=N)N)NC(=O)C(CCc1ccnc(N)n1)NC(=O)[C@@H]1CCCN1C(=O)[C@@H](CCCCN)NC(=O)CN(CCN(CCN(CC(=O)O)CC(=O)O)CC(=O)O)CC(=O)O)C(=O)N[C@@H](CC(C)C)C(=O)O (single isomer, unassigned) [In-111-DTPA-DK-P-Aba(Apy)-R-P-Y-J-L, metal not drawn] | 96.9
CC[C@H](C)[C@H](NC(=O)[C@H](Cc1ccc(O)cc1)NC(=O)[C@@H]1CCCN1C(=O)[C@H](CCCNC(=N)N)NC(=O)[C@H](CCCNC(=N)N)NC(=O)CN(CCN(CCN(CC(=O)O)CC(=O)O)CC(=O)O)CC(=O)O)C(=O)N[C@@H](CC(C)C)C(=O)O [In-111-DTPA-R-R-P-Y-I-L, metal not drawn, reference compound] | 92
CC[C@H](C)[C@H](NC(=O)[C@H](Cc1ccc(O)cc1)NC(=O)[C@@H]1CCCN1C(=O)C(Cc1ccc(NC(=N)N)cc1)NC(=O)[C@H](CCCNC(=N)N)NC(=O)[C@@H]1CCCN1C(=O)[C@@H](CCCCN)NC(=O)CN(CCN(CCN(CC(=O)O)CC(=O)O)CC(=O)O)CC(=O)O)C(=O)N[C@@H](CC(C)C)C(=O)O (single isomer, unassigned) [In-111-DTPA-DK-P-R-F(Gu)-P-Y-I-L, metal not drawn] | 94

Attention now turns to another entry.
HPLC Evaluation of Serum Stability at 37EC, Serum, t = 0 measured on CC[C@H](C)[C@H](NC(=O)[C@H](Cc1ccc(O)cc1)NC(=O)[C@@H]1CCCN1C(=O)[C@H](CCCN=C(N)N)NC(=O)[C@H](Cc1ccc(NC(=N)N)cc1)NC(=O)[C@@H]1CCCN1C(=O)[C@@H](CCCCN)NC(=O)CN(CCN(CCN(CC(=O)O)CC(=O)O)CC(=O)O)CC(=O)O)C(=O)N[C@@H](CC(C)C)C(=O)O [In-111-DTPA-DK-P-F(Gu)-R-P-Y-I-L, metal not drawn] = 98.7

---

# Assay Text: In vitro urine stability assay (HPLC) of In-111 labeled peptide
# Format: in vitro ADME
# Run Conditions: rat, Table 4, rat urine, t = 4 h, read-out: Urine Stability, Urine (t = 4 h)
Parameter: remaining at 4 h (%)
Lab book: enter the figure in %, no units written.

remaining at 4 h measured on CC(C)C[C@H](NC(=O)[C@@H](NC(=O)[C@H](Cc1ccc(O)cc1)NC(=O)[C@@H]1CCCN1C(=O)[C@H](CCCNC(=N)N)NC(=O)C(NC(=O)[C@@H]1CCCN1C(=O)[C@@H](CCCCN)NC(=O)CN(CCN(CCN(CC(=O)O)CC(=O)O)CC(=O)O)CC(=O)O)C1CCN(C(=N)N)CC1)C(C)(C)C)C(=O)O (single isomer, unassigned) [In-111-DTPA-DK-P-G(PipAm)-R-P-Y-tBuG-L, metal not drawn] = 63
